Values were extracted from PubChem BioAssay (NCI).

Readings of growth inhibition for the listed molecules
# method_description: NCI Yeast Anticancer Drug Screen. Data for the cln2 rad14 strain (AID 165);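 also: 0% = growth equal to vehicle treated cultures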
# experimental_setup: S. cerevisiae cln2 rad14 strain, at 50.0 µM, hits give high values
This is part of a sample that, as a whole, favours compounds with a hit. Of some 79,000 tested, about 15% had one in any assay.
Please give a number only; it is taken to be in %.

Worked examples, 8 molecules total:
// returns reported growth inhibition for input `CCCCCCCCCc1ccc(OCCOC(=O)OCCOc2ccc(CCCCCCCCC)cc2)cc1`
13.8

// returns reported growth inhibition for input `COc1ccccc1-n1c(C)nc2c(cnn2CN2CCCCC2)c1=O`
-0.7

// returns reported growth inhibition for input Cc1nc2c(cc1C#N)C(Nc1ccc(Cl)cc1)Oc1ccc([N+](=O)[O-])cc1-2 (stereo not given)
-32.2

// returns reported growth inhibition for input `COC(=O)c1ccc(CSc2ccccc2NC(=S)Nc2cccc(SC)c2)o1`
5.9

// returns reported growth inhibition for input `C#CC(N)=O`
-20.6

// returns reported growth inhibition for input `CC(=O)[C@@]1(c2ccccc2)N(C(=O)c2ccccc2)[C@@]1(C)C(=O)c1ccccc1`
53.1

// returns reported growth inhibition for input `CCOc1ncc(C[n+]2csc(CCO)c2C)c(N)n1`
0.8

// returns reported growth inhibition for input `CCN(CC)CCNC(=O)Nc1ccc(OC)cc1`
-0.05

Further cases:
// returns reported growth inhibition for input CCCCOC(=O)C1C(c2ccc(Cl)cc2)NC(c2ccc(Cl)cc2)C(C(=O)OCCCC)S1(=O)=O (stereo not given)
-1.4

// returns reported growth inhibition for input `O=C(NC(=O)c1cc2cc(Br)cc(Br)c2oc1=O)Oc1ccccc1`
25.4

// returns reported growth inhibition for input COc1ccc(C(=O)C(C)C(O)C(=O)O)c(O)c1C (stereo not given)
2

// returns reported growth inhibition for input `O=[N+]([O-])c1cccc(/C=N\NS(=O)(=O)c2ccc(Cl)cc2)c1O`
-2.3

* * *

# method_description: NCI Yeast Anticancer Drug Screen. Data for the cln2 rad14 strain (AID 165);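 also: 0% = growth equal to vehicle treated cultures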
# experimental_setup: S. cerevisiae cln2 rad14 strain, at 50.0 µM, hits give high values
This is part of a sample that, as a whole, favours compounds with a hit. Of some 79,000 tested, about 15% had one in any assay.
recorded_metric: growth inhibition (%)
Please give a number only; it is taken to be in %.

Worked examples, 2 compounds total:
// returns reported growth inhibition for input `C1=Nc2ccccc2/C1=C/C=C/c1ccccc1`
10.2

// returns reported growth inhibition for input `COC(=O)CCCCl`
8.25

Further cases:
// returns reported growth inhibition for input `CN1CN=C(Sc2ccc(Cl)cc2[N+](=O)[O-])NC1`
-5

// returns reported growth inhibition for input `O=C(O)C(CCOc1ccccc1)(CCc1ccccc1)C(=O)O`
-58.5

// returns reported growth inhibition for input CC1(C)OC2C(C(=O)O)OC(n3cnc4c(N)ncnc43)C2O1 (configuration not stated)
-2.05

// returns reported growth inhibition for input `CCN1C(=NCCO)NS(=O)(=O)c2ccccc21`
-1.95

// returns reported growth inhibition for input `CCCCCCCCCCCCCCCOc1cc(OC)ccc1-c1nnc(SC)s1`
-3.05

* * *

# method_description: NCI Yeast Anticancer Drug Screen. Data for the cln2 rad14 strain (AID 165);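 also: 0% = growth equal to vehicle treated cultures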
# experimental_setup: S. cerevisiae cln2 rad14 strain, at 50.0 µM, hits give high values
This is part of a sample that, as a whole, favours compounds with a hit. Of some 79,000 tested, about 15% had one in any assay.
recorded_metric: growth inhibition (%)
Please give a number only; it is taken to be in %.

Worked examples, 3 compounds total:
// returns reported growth inhibition for input CC(=O)NC1C(O)C(O)C(CO)OC1n1ncc(=O)[nH]c1=O (stereo not drawn)
-18.9

// returns reported growth inhibition for input `Nc1ccccc1C(=O)N/N=C/c1cccnc1`
9.45

// returns reported growth inhibition for input `Cc1ccc(C(=O)/C=C\c2ccc(Cl)c(Cl)c2)cc1`
-5.5

Further cases:
// returns reported growth inhibition for input CC(=O)OC1CCC(OC(C)=O)[C@H]2[C@@H]1[C@@H]1S[C@H]2c2ccccc21 (stereo partly drawn)
11.1

// returns reported growth inhibition for input `Cc1ccc(C(=O)NNC(=O)c2ccc3ccccc3c2)cc1`
10.2
